Catalogue of pIC50 values
- assayed target: recombinant N-terminal GST-tagged human Rho kinase 1 (ROCK1, amino acids 1-535) (Homo sapiens)
- Construct: ROCK1, amino acids 1-535; purchased Invitrogen Inc. PV-3691
- Sequence (Q13464 1-535): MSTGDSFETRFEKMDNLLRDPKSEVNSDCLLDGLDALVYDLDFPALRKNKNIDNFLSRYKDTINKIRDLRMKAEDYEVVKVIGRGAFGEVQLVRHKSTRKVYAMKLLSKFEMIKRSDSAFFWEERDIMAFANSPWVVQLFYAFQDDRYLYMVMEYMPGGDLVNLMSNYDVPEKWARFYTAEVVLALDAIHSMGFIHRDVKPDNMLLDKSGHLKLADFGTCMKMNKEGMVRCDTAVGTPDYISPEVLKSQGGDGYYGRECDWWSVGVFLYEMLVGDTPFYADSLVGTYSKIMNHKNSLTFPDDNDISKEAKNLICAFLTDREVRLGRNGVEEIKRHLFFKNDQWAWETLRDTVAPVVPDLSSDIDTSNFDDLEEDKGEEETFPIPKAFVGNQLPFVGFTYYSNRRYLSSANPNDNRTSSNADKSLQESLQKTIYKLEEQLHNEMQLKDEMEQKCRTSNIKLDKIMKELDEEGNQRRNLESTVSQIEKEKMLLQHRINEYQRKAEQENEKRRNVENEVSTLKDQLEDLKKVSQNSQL
- protocol: In vitro Rho kinase assay (luciferase-based ATP consumption), ROCK1
- Assay type: biochemical
- protocol conditions: recombinant GST-tagged human ROCK1, luciferase-based ATP consumption; read-out: ROCK1 IC50
pIC50: −log10 of the molar value.

Worked examples, 5 molecules total:
• Cc1c(-c2c[nH]c3ncccc23)sc2ccc(Cl)cc12 = < 5.30
• Cc1c(-c2ccnc(N)n2)sc2ccc(CNC(=O)C=Cc3ccccc3O)cc12 = > 5.30
• COc1ccc(C(=O)NCc2ccc3sc(-c4ccnc(N)n4)c(C)c3c2)c(OC)c1OC = < 5.30
• COC(=O)c1cccc(Sc2ccc3sc(-c4ccnc(N)n4)c(C)c3c2)c1 = > 5.30
• Cc1c(-c2ccnc(N)n2)sc2ccc(CNC(=O)CNC(=O)OC(C)(C)C)cc12 = > 5.30

What the record says about Cc1c(-c2ccnc(N)n2)sc2ccc(CNC(=O)c3ccc(I)cc3)cc12 : pIC50 is < 5.30

What the record says about Cc1c(-c2ccnc(N)n2)sc2ccc(CNC(=O)c3cc4ccccc4s3)cc12 : pIC50 is > 5.30

What the record says about COc1cccc(C(=O)NCc2ccc3sc(-c4ccnc(N)n4)c(C)c3c2)c1OC : pIC50 is < 5.30

What the record says about Cc1c(-c2ccnc(N)n2)sc2ccc(CNC(=O)C3CCc4ccccc4C3)cc12 (centres unmarked) : pIC50 is < 5.30

What the record says about COc1ccccc1Cc1ccc2sc(-c3ccnc(N)n3)c(C)c2c1 : pIC50 is < 5.30

* * *

Catalogue of pIC50 values
- assayed target: recombinant N-terminal GST-tagged human Rho kinase 2 (ROCK2, amino acids 1-552) (Homo sapiens, UniProt O75116)
- Construct: ROCK2, amino acids 1-552; purchased Invitrogen Inc. PV3759
- Sequence (O75116 1-552): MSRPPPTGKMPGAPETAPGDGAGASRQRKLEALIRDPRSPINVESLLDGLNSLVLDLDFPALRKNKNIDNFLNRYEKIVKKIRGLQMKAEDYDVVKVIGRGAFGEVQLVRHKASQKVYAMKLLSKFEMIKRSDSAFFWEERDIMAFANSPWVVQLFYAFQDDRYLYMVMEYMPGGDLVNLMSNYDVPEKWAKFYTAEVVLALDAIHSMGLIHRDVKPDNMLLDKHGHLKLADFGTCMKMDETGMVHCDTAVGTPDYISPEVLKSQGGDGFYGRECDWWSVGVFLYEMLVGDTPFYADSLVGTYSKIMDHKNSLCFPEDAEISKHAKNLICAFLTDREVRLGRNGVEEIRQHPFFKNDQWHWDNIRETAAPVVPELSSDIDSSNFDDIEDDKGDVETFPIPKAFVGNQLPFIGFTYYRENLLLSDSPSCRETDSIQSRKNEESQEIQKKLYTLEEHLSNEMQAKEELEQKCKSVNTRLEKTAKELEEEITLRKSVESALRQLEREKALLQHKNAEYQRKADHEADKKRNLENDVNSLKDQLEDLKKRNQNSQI
- protocol: In vitro Rho kinase assay (luciferase-based ATP consumption), ROCK2
- Type: biochemical
- protocol conditions: recombinant GST-tagged human ROCK2, luciferase-based ATP consumption; read-out: ROCK2 IC50
pIC50: −log10 of the molar value.

Worked examples, 3 compounds total:
• Cc1c(-c2ccnc(N)n2)sc2ccc(CNC(=O)C=Cc3cccc(O)c3)cc12 [Example 163] = > 5.30
• Cc1c(-c2ccnc(N)n2)sc2cnccc12 [Example 18] = > 5.30
• Cc1c(-c2ccnc(N)n2)sc2ccc(CNC(=O)c3cnc[nH]3)cc12 [Example 102] = > 5.30

What the record says about Cc1c(-c2ccnc(N)n2)sc2ccc(C(=O)NCCc3ccc(F)cc3)cc12 [Example 405] : pIC50 is > 5.30

What the record says about Cc1c(-c2ccnc(N)n2)sc2ccc(Nc3cccc(O)c3)cc12 [Example 52] : pIC50 is > 5.30

What the record says about Cc1c(-c2ccnc(N)n2)sc2ccc(C(=O)N3CCN(C(=O)OC(C)(C)C)CC3)cc12 [Example 530] : pIC50 is < 5.30

* * *

- assayed target: recombinant N-terminal GST-tagged human Rho kinase 1 (ROCK1, amino acids 1-535) (Homo sapiens)
- Construct: ROCK1, amino acids 1-535; purchased Invitrogen Inc. PV-3691
- protocol: In vitro Rho kinase assay (luciferase-based ATP consumption), ROCK1
- Assay type: biochemical
- protocol conditions: recombinant GST-tagged human ROCK1, luciferase-based ATP consumption; read-out: ROCK1 IC50
Catalogue of IC50 values

Worked examples, 5 compounds total:
* Cc1c(-c2ccnc(N)n2)sc2ccc(CNC(=O)c3cnc[nH]3)cc12 | < 5 µM
* CC(=O)NCC(=O)NCc1ccc2sc(-c3ccnc(N)n3)c(C)c2c1 | > 5 µM
* Cc1c(-c2ccnc(N)n2)sc2ccc(CNC(=O)c3ccc(Cl)c([N+](=O)[O-])c3)cc12 | > 5 µM
* COc1cccc(Oc2ccc3sc(-c4ccnc(N)n4)c(C)c3c2)c1 | < 5 µM
* Cc1c(-c2ccnc(N)n2)sc2ccc(Nc3cccc(NS(C)(=O)=O)c3)cc12 | < 5 µM

What the record says about CCOc1ccc2ccccc2c1C(=O)NCc1ccc2sc(-c3ccnc(N)n3)c(C)c2c1 : IC50 is > 5 µM

What the record says about Cc1c(-c2ccnc(N)n2)sc2ccc(CNC(=O)c3cc4ccccc4cc3O)cc12 : IC50 is < 5 µM

What the record says about Cc1c(-c2ccnc(N)n2)sc2ccc(CNC(=O)c3ccc(F)c(F)c3)cc12 : IC50 is > 5 µM
